Reference source: ChEMBL document CHEMBL5120905

Target: UniProtKB P29274
Sequence (P29274 whole entry): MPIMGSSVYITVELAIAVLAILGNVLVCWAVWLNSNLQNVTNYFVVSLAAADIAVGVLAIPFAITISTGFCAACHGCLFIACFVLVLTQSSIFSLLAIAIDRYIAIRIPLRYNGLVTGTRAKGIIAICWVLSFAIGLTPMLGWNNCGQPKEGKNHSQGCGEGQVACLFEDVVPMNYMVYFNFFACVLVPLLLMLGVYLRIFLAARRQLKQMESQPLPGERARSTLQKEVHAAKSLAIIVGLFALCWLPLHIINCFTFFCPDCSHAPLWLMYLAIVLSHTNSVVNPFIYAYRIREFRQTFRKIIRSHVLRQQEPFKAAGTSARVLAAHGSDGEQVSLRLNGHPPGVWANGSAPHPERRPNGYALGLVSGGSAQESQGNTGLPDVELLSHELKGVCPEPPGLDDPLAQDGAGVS
Test: Agonist activity at human A2A receptor expressed in Flp-In-CHO cells assessed as cAMP accumulation incubated for 30 mins by LANCE cAMP assay
In this section we review reported pEC50 values for a set of compounds.
Keep it numeric: pEC50 is minus log10 of the concentration in mol/L.

Sample Nc1sc(-c2ccc(C(=O)NCCC#Cc3ccc(Nc4ncnc5c4ncn5[C@@H]4O[C@H](CO)[C@@H](O)[C@H]4O)cc3)cc2)c(-c2cccc(C(F)(F)F)c2)c1C(=O)c1ccccc1 — what was its pEC50? 6.13

Request: Nc1sc(-c2ccc(C(=O)NCCCCCCNc3ncnc4c3ncn4[C@@H]3O[C@H](CO)[C@@H](O)[C@H]3O)cc2)c(-c2cccc(C(F)(F)F)c2)c1C(=O)c1ccccc1 6.41

Would you kindly look at the next entry?
Sample Nc1sc(-c2ccc(C(=O)NCCc3ccc(CCNc4ncnc5c4ncn5[C@@H]4O[C@H](CO)[C@@H](O)[C@H]4O)cc3)cc2)c(-c2cccc(C(F)(F)F)c2)c1C(=O)c1ccccc1 — what was its pEC50? 6.44
